test: Tolerability in Sprague-Dawley rats: kidney function, urine protein/creatinine (Example 35); conditions: Sprague-Dawley rats; plasma; 50 mg/kg s.c. twice per week for 6 weeks
# binarize Creatinine: threshold 6 mg/dL inclusive, high side 1 (yes), low side 0 (no)

substance="ISIS 416858: MOE gapmer, nucleobases 1275 to 1318 of SEQ ID NO: 1 (Table 8) (antisense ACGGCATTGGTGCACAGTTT; MOE gapmer, wing and gap sizes not given here)" assigned_category="0 (no)"

**Query** Given the entry ISIS 416838: MOE gapmer, nucleobases 1018 to 1042 of SEQ ID NO: 1 (Table 6) (antisense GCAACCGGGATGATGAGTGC; MOE gapmer, wing and gap sizes not given here) , answer whether its Creatinine meets or surpasses 6 mg/dL.
**Result** 0 (no)

**Query** Exam item: decide whether the reported Creatinine for ISIS 417002: MOE gapmer, nucleobases 1275 to 1318 of SEQ ID NO: 1 (Table 8) (antisense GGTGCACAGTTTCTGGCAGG; MOE gapmer, wing and gap sizes not given here) is at least 6 mg/dL.
**Result** 0 (no)

**Query** In plain terms: is recorded Creatinine at least 6 mg/dL for ISIS 416850: MOE gapmer, nucleobases 1275 to 1318 of SEQ ID NO: 1 (Table 8) (antisense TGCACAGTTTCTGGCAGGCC; MOE gapmer, wing and gap sizes not given here) ?
**Result** 1 (yes)

FYI, the data here is from patent US20230263822A1.
